biological target: Neu5Gc(a2-6)GalNAc; assay: glycan array binding signal (z-score within array); higher = stronger binding; conditions: glycan notation: IUPAC condensed, linker removed
The entries come from a sample that favours the strongest signals as a whole.
We begin with a simple list: items and their reported glycan array binding signal (z-score).

[
  {
    "BINDER": "HA-00510 (Pseudomonas aeruginosa), Q02V39_PSEAB (protein) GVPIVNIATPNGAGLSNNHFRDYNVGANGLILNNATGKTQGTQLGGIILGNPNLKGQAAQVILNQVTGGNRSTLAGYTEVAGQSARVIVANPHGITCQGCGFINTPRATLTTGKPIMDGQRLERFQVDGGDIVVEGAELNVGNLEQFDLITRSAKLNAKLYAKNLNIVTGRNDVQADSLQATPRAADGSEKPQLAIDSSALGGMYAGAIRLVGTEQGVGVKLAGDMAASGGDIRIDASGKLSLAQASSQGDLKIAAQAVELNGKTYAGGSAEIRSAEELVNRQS",
    "VALUE_MEASURED": -0.059
  }
]

Prompt line: Consider the binder shown here: Epa9 (Candida glabrata), CAGL0A01386g (protein) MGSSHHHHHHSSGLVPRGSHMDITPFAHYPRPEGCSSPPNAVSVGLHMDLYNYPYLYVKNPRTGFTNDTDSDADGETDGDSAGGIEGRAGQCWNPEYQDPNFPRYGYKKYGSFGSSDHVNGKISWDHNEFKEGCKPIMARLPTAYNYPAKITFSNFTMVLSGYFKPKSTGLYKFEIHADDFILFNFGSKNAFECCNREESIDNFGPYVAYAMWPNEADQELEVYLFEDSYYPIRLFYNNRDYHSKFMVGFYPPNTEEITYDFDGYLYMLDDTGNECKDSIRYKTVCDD What is its recorded glycan array binding signal (z-score)?
Response line: -0.467
